Biological target: human GluN1/GluN2B NMDA receptors (Homo sapiens)
Construct: expressed in transfected cells
Sequence (Q13224 27-1484, other chains not shown): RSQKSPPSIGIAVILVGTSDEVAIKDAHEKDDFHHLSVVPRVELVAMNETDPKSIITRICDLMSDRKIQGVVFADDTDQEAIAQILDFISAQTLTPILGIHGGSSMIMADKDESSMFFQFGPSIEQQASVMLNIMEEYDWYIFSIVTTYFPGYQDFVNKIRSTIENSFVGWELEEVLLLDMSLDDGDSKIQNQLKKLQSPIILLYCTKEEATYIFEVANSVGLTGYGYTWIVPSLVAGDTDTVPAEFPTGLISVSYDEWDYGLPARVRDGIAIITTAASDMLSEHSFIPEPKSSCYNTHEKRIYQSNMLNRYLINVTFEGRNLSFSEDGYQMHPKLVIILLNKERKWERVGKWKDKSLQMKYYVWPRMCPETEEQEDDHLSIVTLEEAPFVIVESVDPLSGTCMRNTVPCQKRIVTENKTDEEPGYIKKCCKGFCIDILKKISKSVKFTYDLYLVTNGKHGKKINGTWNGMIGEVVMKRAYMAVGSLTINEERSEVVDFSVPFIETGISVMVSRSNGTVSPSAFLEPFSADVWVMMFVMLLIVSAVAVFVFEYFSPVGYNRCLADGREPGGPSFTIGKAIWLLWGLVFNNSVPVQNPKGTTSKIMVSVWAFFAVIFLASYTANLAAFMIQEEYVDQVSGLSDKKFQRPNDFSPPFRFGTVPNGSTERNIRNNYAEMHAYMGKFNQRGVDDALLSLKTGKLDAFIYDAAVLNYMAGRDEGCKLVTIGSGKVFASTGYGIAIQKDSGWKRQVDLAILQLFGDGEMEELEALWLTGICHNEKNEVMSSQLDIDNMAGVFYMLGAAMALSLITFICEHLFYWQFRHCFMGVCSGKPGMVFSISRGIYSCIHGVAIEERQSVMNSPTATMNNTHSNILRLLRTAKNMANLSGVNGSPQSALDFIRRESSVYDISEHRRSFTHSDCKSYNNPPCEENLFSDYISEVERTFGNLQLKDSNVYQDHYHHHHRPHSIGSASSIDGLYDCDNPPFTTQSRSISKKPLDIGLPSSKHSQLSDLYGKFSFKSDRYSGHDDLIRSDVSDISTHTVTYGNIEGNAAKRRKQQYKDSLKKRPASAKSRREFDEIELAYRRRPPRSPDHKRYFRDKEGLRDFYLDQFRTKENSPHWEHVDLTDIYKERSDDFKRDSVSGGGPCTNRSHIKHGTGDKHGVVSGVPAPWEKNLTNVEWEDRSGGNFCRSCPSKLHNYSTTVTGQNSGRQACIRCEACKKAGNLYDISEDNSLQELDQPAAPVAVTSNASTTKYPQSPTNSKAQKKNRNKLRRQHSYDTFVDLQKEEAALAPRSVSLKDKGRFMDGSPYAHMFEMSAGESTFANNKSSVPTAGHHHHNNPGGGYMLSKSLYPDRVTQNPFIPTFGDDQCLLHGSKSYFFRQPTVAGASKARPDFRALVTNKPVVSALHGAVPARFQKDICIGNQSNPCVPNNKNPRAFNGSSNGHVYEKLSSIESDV
Assay: Cell-based calcium flux (FLIPR) assay on cloned human NR1/NR2B ion channels expressed in mammalian cells (standard and HTS buffer variants);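 further: stable Tet-On inducible cell line, Ca2+ influx triggered by glutamate at about EC40 plus 10 µM glycine, fluorescent dye read-out over 5 min, normalized to control wells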
Settings: standard assay buffer (0.5 mM MgCl2 dye loading; 137 mM NaCl, 4 mM KCl assay buffer), human GluN1/GluN2B cells, read-out: NR2B IC50 (μM) standard assay
QUANTITY: IC50 (µM)

>>> measured("Cc1nnc(Cn2c(=O)[nH]c3ncc(-c4ccc(F)cc4)cc32)o1")
0.076
>>> measured("O=c1[nH]c2ncc(-c3cccc(C(F)F)c3)cc2n1Cc1ccccn1")
0.107
>>> measured("COC1CCN(CCn2c(=O)[nH]c3ncc(-c4cc(F)cc(F)c4)cc32)C1 (stereo not drawn)")
4.37
>>> measured("CCc1ccc(-c2cnc3c(c2)n(CC(=O)N2CC(F)C2)c(=O)n3C)s1")
0.02

A: Cn1c(=O)n(Cc2ccncc2)c2cc(-c3cccc(C(F)(F)F)c3)cnc21
B: CN(C)C(=O)Cn1c(=O)n(C)c2ncc(-c3ccc(C(F)F)s3)cc21
C: Cc1cc(-c2cnc3[nH]c(=O)n(Cc4ccn(C)n4)c3c2)ccc1F
Sort the molecules on IC50; start with the lowest figure. Answer by writing out the labels in the requested order. B, C, A
